Procedure details: MTT viability of fibroblasts over three days
Type: cell-based, human
Run parameters: human, adult fibroblasts (HDFa cells)
Where a SMILES comes first, the peptide text is derived from it. [ ]: non-standard residue; d: D form. Orn = NCCC[C@H](N)C(=O)O
Readout type: viability at 72 h, 100 µM (%)
Field format: number, assumed %, no unit text.

[Q] Name the reported viability at 72 h, 100 µM value associated with the compound CC[C@H](C)[C@H](NC(=O)[C@H](CCCN)NC(=O)[C@H](CCCN)NC(=O)[C@@H](NC(=O)[C@@H](NC(=O)[C@H](CCCN)NC(=O)[C@H](CCCN)NC(=O)[C@@H](NC(=O)[C@@H](NC(=O)[C@H](CCCN)NC(=O)[C@H](CCCN)NC(=O)[C@@H](NC(=O)[C@@H](NC(=O)CN)[C@@H](C)CC)[C@@H](C)CC)[C@@H](C)CC)[C@@H](C)CC)[C@@H](C)CC)[C@@H](C)CC)C(N)=O [GO, G(IIOO)3 I-NH2] (H-GII[Orn][Orn]II[Orn][Orn]II[Orn][Orn]I-NH2)
[A] 70

---

Procedure details: in vitro
Type: cell-based
Run parameters: human, neonatal fibroblasts (HDFn cells)
Where a SMILES comes first, the peptide text is derived from it. [ ]: non-standard residue; d: D form. Orn = NCCC[C@H](N)C(=O)O
Readout type: viability at 48 h, 5 µM
Quote the value and follow it with the unit of measurement.

[Q] Name the reported viability at 48 h, 5 µM value associated with the compound CC[C@H](C)[C@H](NC(=O)[C@H](CCCN)NC(=O)[C@H](CCCN)NC(=O)[C@@H](NC(=O)[C@@H](NC(=O)[C@H](CCCN)NC(=O)[C@H](CCCN)NC(=O)[C@@H](NC(=O)[C@@H](NC(=O)[C@H](CCCN)NC(=O)[C@H](CCCN)NC(=O)[C@@H](NC(=O)[C@@H](NC(=O)CN)[C@@H](C)CC)[C@@H](C)CC)[C@@H](C)CC)[C@@H](C)CC)[C@@H](C)CC)[C@@H](C)CC)C(N)=O [GO, G(IIOO)3 I-NH2] (H-GII[Orn][Orn]II[Orn][Orn]II[Orn][Orn]I-NH2)
[A] 91%

---

Quick reference for viability at 72 h, 50 µM among some substances
Procedure details: in vitro
Type: cell-based
Run parameters: human, neonatal fibroblasts (HDFn cells)
Where no end group is shown, it is not given here.
Field format: number, assumed %, no unit text.

| Substance | Reported measurement |
| --- | --- |
| GLLKKLLKKLLKKL-NH2 [GL, G(LLKK)3 L-NH2] | 67 |
| GKIKKIIKKIIKII-NH2 [GKI, GKI(KKII)2 KII-NH2] | 71 |
| GIIKKIIKKIIKKIIKKI-NH2 [Helix G4, G(IIKK)4 I-NH2] | 65 |

Note: attention shifts to another entry.
[Q] Name the reported viability at 72 h, 50 µM value associated with the substance GIKKKIIKKIIKII-NH2 [GIK, GIK(KKII)2 KII-NH2]
[A] 75

---

Procedure details: MTT viability of fibroblasts over three days
Assay type: cell-based, human
Run parameters: human, adult fibroblasts (HDFa cells)
Procedure: MTT assay: Cell viability and proliferation is widely assessed by the MTT assay as already described previously. The fibroblasts cells, Neonatal (HDFn) and Adult (HDFa), were both grown until greater than 80% confluent. […] After 24 hour incubation the culture medium was replaced with fresh medium containing an appropriate amount of the peptide for investigation. […]
Where no end group is shown, it is not given here.
Rule: viability at 24 h, 100 µM below 80% gives y, anything at or above gives n.

| Substance | Answer label |
| --- | --- |
| GKIKKIIKKIIKII-NH2 [GKI, GKI(KKII)2 KII-NH2] | n |
| GIKKKIIKKIIKII-NH2 [GIK, GIK(KKII)2 KII-NH2] | n |
| GIIKKIIKKI-NH2 [Helix G2, G(IIKK)2 I-NH2] | n |

[Q] Below 80% on viability at 24 h, 100 µM? Entry GLLKKLLKKLLKKL-NH2 [GL, G(LLKK)3 L-NH2]
[A] y

---

Procedure details: in vitro
Format: cell-based
Run parameters: human, neonatal fibroblasts (HDFn cells)
Method: MTT assay: Cell viability and proliferation is widely assessed by the MTT assay as already described previously. The fibroblasts cells, Neonatal (HDFn) and Adult (HDFa), were both grown until greater than 80% confluent. The cells were then harvested and seeded into micro well plate at cell densities of 5000 cells/well in a volume […] of medium. After 24 hour incubation the culture medium was replaced with fresh medium containing an appropriate amount of the peptide for investigation.
Where a SMILES comes first, the peptide text is derived from it. [ ]: non-standard residue; d: D form. Orn = NCCC[C@H](N)C(=O)O
Readout type: viability at 48 h, 25 µM (%)
Field format: number, assumed %, no unit text.

[Q] Name the reported viability at 48 h, 25 µM value associated with the compound CC[C@H](C)[C@H](NC(=O)[C@H](CCCN)NC(=O)[C@H](CCCN)NC(=O)[C@@H](NC(=O)[C@@H](NC(=O)[C@H](CCCN)NC(=O)[C@H](CCCN)NC(=O)[C@@H](NC(=O)[C@@H](NC(=O)[C@H](CCCN)NC(=O)[C@H](CCCN)NC(=O)[C@@H](NC(=O)[C@@H](NC(=O)CN)[C@@H](C)CC)[C@@H](C)CC)[C@@H](C)CC)[C@@H](C)CC)[C@@H](C)CC)[C@@H](C)CC)C(N)=O [GO, G(IIOO)3 I-NH2] (H-GII[Orn][Orn]II[Orn][Orn]II[Orn][Orn]I-NH2)
[A] 85

---

Procedure details: in vitro
Assay type: cell-based
Run parameters: human, neonatal fibroblasts (HDFn cells)
Where a SMILES comes first, the peptide text is derived from it. [ ]: non-standard residue; d: D form. Orn = NCCC[C@H](N)C(=O)O
Readout type: viability at 72 h, 50 µM (%)
Field format: number, assumed %, no unit text.

[Q] Name the reported viability at 72 h, 50 µM value associated with the compound CC[C@H](C)[C@H](NC(=O)[C@H](CCCN)NC(=O)[C@H](CCCN)NC(=O)[C@@H](NC(=O)[C@@H](NC(=O)[C@H](CCCN)NC(=O)[C@H](CCCN)NC(=O)[C@@H](NC(=O)[C@@H](NC(=O)[C@H](CCCN)NC(=O)[C@H](CCCN)NC(=O)[C@@H](NC(=O)[C@@H](NC(=O)CN)[C@@H](C)CC)[C@@H](C)CC)[C@@H](C)CC)[C@@H](C)CC)[C@@H](C)CC)[C@@H](C)CC)C(N)=O [GO, G(IIOO)3 I-NH2] (H-GII[Orn][Orn]II[Orn][Orn]II[Orn][Orn]I-NH2)
[A] 75

---

Quick reference for viability at 72 h, 50 µM among some substances
Procedure details: MTT viability of fibroblasts over three days
Type: cell-based, human
Run parameters: human, adult fibroblasts (HDFa cells)
Where no end group is shown, it is not given here.
Field format: number, assumed %, no unit text.

Worked examples follow.
| Substance | viability at 72 h, 50 µM, % |
| --- | --- |
| GKIKKIIKKIIKII-NH2 [GKI, GKI(KKII)2 KII-NH2] | 71 |
| GIIKKIIKKIIKKI-NH2 [Helix G3, G(IIKK)3 I-NH2] | 75 |
| GLLKKLLKKLLKKL-NH2 [GL, G(LLKK)3 L-NH2] | 46 |
| GIIKKIIKKIIKKIIKKI-NH2 [Helix G4, G(IIKK)4 I-NH2] | 65 |
| GIKKKIIKKIIKII-NH2 [GIK, GIK(KKII)2 KII-NH2] | 73 |

[Q] Name the reported viability at 72 h, 50 µM value associated with the substance GIIKKIIKKI-NH2 [Helix G2, G(IIKK)2 I-NH2]
[A] 79

---

Procedure details: MTT viability of fibroblasts over three days
Assay type: cell-based, human
Run parameters: human, adult fibroblasts (HDFa cells)
Where a SMILES comes first, the peptide text is derived from it. [ ]: non-standard residue; d: D form. Orn = NCCC[C@H](N)C(=O)O
Readout type: viability at 48 h, 25 µM
Quote the value and follow it with the unit of measurement.

[Q] Name the reported viability at 48 h, 25 µM value associated with the compound CC[C@H](C)[C@H](NC(=O)[C@H](CCCN)NC(=O)[C@H](CCCN)NC(=O)[C@@H](NC(=O)[C@@H](NC(=O)[C@H](CCCN)NC(=O)[C@H](CCCN)NC(=O)[C@@H](NC(=O)[C@@H](NC(=O)[C@H](CCCN)NC(=O)[C@H](CCCN)NC(=O)[C@@H](NC(=O)[C@@H](NC(=O)CN)[C@@H](C)CC)[C@@H](C)CC)[C@@H](C)CC)[C@@H](C)CC)[C@@H](C)CC)[C@@H](C)CC)C(N)=O [GO, G(IIOO)3 I-NH2] (H-GII[Orn][Orn]II[Orn][Orn]II[Orn][Orn]I-NH2)
[A] 92%

Measured values drawn from patent US9745348B2 for this set.
